These entries and their values trace back to patent US20070249670A1.

pIC50 values, listed per item
# measurement.target: human liver glycogen phosphorylase a (HLGPa) (Homo sapiens, UniProt P06737)
# Construct: creating a full-length cDNA fused at the 5′ end to codons for methionine-glycine-alanine-histidine; 6xHis tag (leader Met-Gly-Ala-His6-Gly-Gly) (N); made in house; host or cells: E. coli (bacterial expression plasmid pTXK1007LTev)
# Sequence (P06737 2-847 limits assumed): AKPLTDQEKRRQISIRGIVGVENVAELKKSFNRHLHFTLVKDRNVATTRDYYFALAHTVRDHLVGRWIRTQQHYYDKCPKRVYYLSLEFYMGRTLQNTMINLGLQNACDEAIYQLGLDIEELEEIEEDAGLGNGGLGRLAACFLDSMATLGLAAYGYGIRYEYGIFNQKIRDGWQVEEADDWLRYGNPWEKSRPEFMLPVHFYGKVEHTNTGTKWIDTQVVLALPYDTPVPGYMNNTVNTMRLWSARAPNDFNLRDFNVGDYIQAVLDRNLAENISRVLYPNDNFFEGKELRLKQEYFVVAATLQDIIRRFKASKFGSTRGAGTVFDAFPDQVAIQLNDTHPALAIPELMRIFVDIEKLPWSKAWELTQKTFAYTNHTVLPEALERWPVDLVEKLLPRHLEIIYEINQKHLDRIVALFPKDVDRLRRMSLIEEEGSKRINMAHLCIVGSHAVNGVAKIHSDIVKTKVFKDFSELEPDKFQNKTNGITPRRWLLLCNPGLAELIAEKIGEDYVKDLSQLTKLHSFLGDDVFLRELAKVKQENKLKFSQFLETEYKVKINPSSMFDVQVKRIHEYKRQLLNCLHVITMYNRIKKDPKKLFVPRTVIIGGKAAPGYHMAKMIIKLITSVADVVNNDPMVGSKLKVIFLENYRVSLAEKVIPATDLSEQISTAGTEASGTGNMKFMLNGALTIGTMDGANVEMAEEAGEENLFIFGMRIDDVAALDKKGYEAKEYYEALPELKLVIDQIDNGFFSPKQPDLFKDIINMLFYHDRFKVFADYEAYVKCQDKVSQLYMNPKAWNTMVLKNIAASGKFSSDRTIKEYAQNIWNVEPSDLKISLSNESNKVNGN
# experiment.summary: Human liver glycogen phosphorylase a enzymatic activity assay (coupled, fluorescent resorufin readout, with and without 10 mM glucose)
# Format: biochemical
# particulars: human liver glycogen phosphorylase a enzymatic activity assay
pIC50: −log10 of the molar value.

| structure.smiles.string | pIC50 |
| --- | --- |
| O=C(O)CNC(=O)c1cc2ccccc2cc1NC(=O)Nc1ccccc1Cl | 5.60 |
| Cc1cc(C)c(NC(=O)Nc2sc3c(c2C(=O)N[C@@H](CC(=O)O)C(=O)O)CCCC3)c(C)c1 | 5.62 |
| Cc1cccc(Cl)c1NC(=O)Nc1cc(F)c(F)cc1C(=O)N[C@@H](CC1CCCCC1)C(=O)O | 4.73 |
| O=C(O)C[C@H](NC(=O)c1cc2ccccc2cc1NC(=O)Nc1c(Cl)cccc1Cl)C(=O)O | 6.64 |
| Cc1cccc(C)c1NC(=O)Nc1cc(-c2ccncc2)ccc1C(=O)N[C@H](C(=O)O)C1CCCCC1 | 6.77 |
| Cc1cccc(Cl)c1NC(=O)Nc1cc2ccccc2cc1C(=O)N[C@@H](CC(=O)O)C(=O)O | 6.41 |
| COc1ccc(-c2ccc(C(=O)N[C@H](C(=O)O)C3CCCCC3)c(NC(=O)Nc3c(C)cc(C)cc3C)c2)cc1 | 8.15 |

---

# measurement.target: human liver glycogen phosphorylase a (HLGPa) (Homo sapiens)
# Construct: creating a full-length cDNA fused at the 5′ end to codons for methionine-glycine-alanine-histidine; 6xHis tag (leader Met-Gly-Ala-His6-Gly-Gly) (N); made in house; host or cells: E. coli (bacterial expression plasmid pTXK1007LTev)
# experiment.summary: Human liver glycogen phosphorylase a enzymatic activity assay (coupled, fluorescent resorufin readout, with and without 10 mM glucose)
# Format: biochemical
# particulars: human liver glycogen phosphorylase a enzymatic activity assay
Counter-ions that a name gives are not always drawn.
Please assign f whenever IC50 is at or above 3000 nM, and t whenever it is below.

| compound | class.name |
| --- | --- |
| Cc1cccc(C)c1NC(=O)Nc1cc2ccccc2cc1C(=O)N[C@@H](Cc1ccc(O)cc1)C(=O)O | t |
| COc1ccc(-c2cc(NC(=O)Nc3c(C)cc(C)cc3C)c(C(=O)N3CCCC[C@H]3C(=O)O)s2)cc1 | t |
| Cc1cccc(C)c1NC(=O)Nc1cc2ccccc2cc1C(=O)N(C)CC(=O)O | t |
| Cc1cc(C)c(NC(=O)Nc2cc3ccccc3cc2C(=O)NCCC(=O)O)c(C)c1 | t |
| Cc1cc(C)c(NC(=O)Nc2cc(-c3cc(F)cc(F)c3)ccc2C(=O)N[C@H](C(=O)O)[C@@H](C)OC(C)(C)C)c(C)c1 | t |
| Cc1cc(C)c(NC(=O)Nc2cc3ccccc3cc2C(=O)N[C@@H](Cc2ccccc2)C(=O)O)c(C)c1 | t |
| Cc1cccc(Cl)c1NC(=O)Nc1cc2ccccc2cc1C(=O)N[C@@H](CC(N)=O)C(=O)O | t |
| Cc1cccc(C)c1NC(=O)Nc1sc2c(c1C(=O)N[C@@H](CC(=O)O)C(=O)O)CCCC2 | f |
| O=C(Nc1sc(Br)cc1C(=O)O)Nc1c(Cl)cccc1Cl | f |
| Cc1cccc(C)c1NC(=O)Nc1cc(Cl)ccc1C(=O)O | f |
| Cc1cccc(C)c1NC(=O)Nc1cc(Cl)ccc1C(=O)N[C@H](C(=O)O)C1CCCCC1 [Example 167] | t |
| COc1ccc(-c2cc(NC(=O)Nc3c(C)cc(C)cc3C)c(C(=O)NC3(C(=O)O)CCCC3)s2)cc1 | t |
| C#CCc1cc(C)c(NC(=O)Nc2cc3ccccc3cc2C(=O)N[C@H](C(=O)O)C2CCCCC2)c(C)c1 | t |
| Cc1cc(C2CC2)cc(C)c1NC(=O)Nc1c(C(=O)N[C@H](C(=O)O)C2CCCCC2)ccc2ccccc12 | t |
| CSCC[C@H](NC(=O)c1cc2ccccc2cc1NC(=O)Nc1c(C)cccc1C)C(=O)O | t |
| Cc1cccc(Cl)c1NC(=O)Nc1cc2ccccc2cc1C(=O)NC(C(=O)O)C1CCCNC1 (stereo not drawn) [Example 5, trifluoroacetate] | f |
| Cc1cccc(C)c1NC(=O)Nc1cc(-c2cccnc2)ccc1C(=O)N[C@H](C(=O)O)C1CCCCC1 | t |
| Cc1cccc(Cl)c1NC(=O)Nc1cc(F)c(F)cc1C(=O)N[C@@H](CC(=O)O)C(=O)O | f |
| O=C(Nc1sc(-c2ccc(OC(F)(F)F)cc2)cc1C(=O)O)Nc1c(Cl)cc(OC(F)(F)F)cc1Cl | t |
| CCc1cccc(C)c1NC(=O)Nc1cc2ccccc2cc1C(=O)N[C@H](C(=O)O)C1CCCCC1 | t |
| Cc1cccc(C)c1NC(=O)Nc1cc2ccccc2cc1C(=O)N[C@@H](CCCNC(=N)N)C(=O)O | f |
| Cc1cccc(C)c1NC(=O)Nc1cc2ccccc2cc1C(=O)N[C@@H](Cc1c[nH]c2ccccc12)C(=O)O [Example 54, trifluoroacetate] | t |
| O=C(Nc1cc(-c2cccnc2)sc1C(=O)O)Nc1c(Cl)cccc1Cl | f |
| Cc1cccc(C(C)C)c1NC(=O)Nc1cc2ccccc2cc1C(=O)N[C@@H](C(=O)O)C1CCCCC1 | f |
| COc1ccc(-c2cc(NC(=O)Nc3c(C)cc(C)cc3C)c(C(=O)N[C@H](C(=O)O)[C@@H](C)OC(C)(C)C)s2)cc1 | t |
| O=C(Cc1c(Cl)cc(Cl)cc1Cl)Nc1cc(-c2ccccc2)ccc1C(=O)N[C@H](C(=O)O)C1CCCCC1 | t |
| Cc1cccc(Cl)c1NC(=O)Nc1cc2ccccc2cc1C(=O)N[C@H](Cc1ccccc1F)C(=O)O | f |
| O=C(Nc1cc(Cl)ccc1C(=O)N[C@H](C(=O)O)C1CCCCC1)Nc1c(Cl)cccc1Cl [Example 168] | t |
| Cc1cccc(C)c1NC(=O)Nc1cc2ccccc2cc1C(=O)N[C@@H](CC1CCCCC1)C(=O)O [Example 99] | t |
